Source: patent US10464946B2

- assay.comment: Dynamic vapor sorption (DVS) hygroscopicity
- Type: physicochemical
- assay.setup: expected from the DVS result, relative humidity of 10% to 90%

molecule: C=CC(=O)Nc1cccc(Oc2nc(Nc3ccc(N4CCN(C)CC4)cc3)nc3ccsc23)c1 [Example 4]
stability from the hygroscopic aspect: very stable
--
molecule: C=CC(=O)Nc1cccc(Oc2nc(Nc3ccc(N4CCN(C)CC4)cc3)nc3ccsc23)c1 [Example 3]
stability from the hygroscopic aspect: very stable
